Below is a list of entries, each paired with its recorded LC retention time value.
- assay.explanation: RP, Restek Raptor Biphenyl, 100 × 2.1 mm, 2.7 µm, 50 °C, 0.4 mL/min, estimated dead time 0.55 min; A: water + 0.1% formic acid, pH 3; B: methanol + 0.1% formic acid, pH 3; gradient (min/%B) 0/5 1.12/5 6.41/99.5 10.01/99.5
- condition.description: stereoisomer not certain
Express it in min; write the number only.

Request the reported LC retention time associated with CCCCCCCCCC[n+]1cccc(S(=O)(=O)[O-])c1
5.39

* * *

Below is a list of entries, each paired with its recorded LC retention time value.
- assay.explanation: RP, Restek Raptor Biphenyl, 100 × 2.1 mm, 2.7 µm, 50 °C, 0.4 mL/min, estimated dead time 0.55 min; A: water + 0.1% formic acid, pH 3; B: methanol + 0.1% formic acid, pH 3; gradient (min/%B) 0/5 1.12/5 6.41/99.5 10.01/99.5
- condition.description: stereoisomer not certain
Express it in min; write the number only.

Field: example entries. Status: answers known.
[[record]]
compound = "CSCC1OC(n2cnc3c(N)ncnc32)C(O)C1O (stereo not given)"
experimental_readout = "LC retention time"
reported_measurement = 3.18

[[record]]
compound = "CCN(Cc1ccc(Cl)nc1)C(=C[N+](=O)[O-])NC"
experimental_readout = "LC retention time"
reported_measurement = 3.63

[[record]]
compound = "N#CCNC(=O)c1cnccc1C(F)(F)F"
experimental_readout = "LC retention time"
reported_measurement = 3.4

[[record]]
compound = "CCc1ccc(C(=O)NN(C(=O)c2cc(C)cc(C)c2)C(C)(C)C)cc1 [Tebufenozide]"
experimental_readout = "LC retention time"
reported_measurement = 6.04


Below: the item to evaluate.
Request the reported LC retention time associated with COP(=O)(NC(C)=O)SC (stereo not given) [Acephate]
2.34

* * *

Below is a list of entries, each paired with its recorded LC retention time value.
- assay.explanation: RP, Restek Raptor Biphenyl, 100 × 2.1 mm, 2.7 µm, 50 °C, 0.4 mL/min, estimated dead time 0.55 min; A: water + 0.1% formic acid, pH 3; B: methanol + 0.1% formic acid, pH 3; gradient (min/%B) 0/5 1.12/5 6.41/99.5 10.01/99.5
- condition.description: stereoisomer not certain
Express it in min; write the number only.

[[record]]
molecule = "CCCCCCCCCCCCCCCCCCCC[n+]1cccc(S(=O)(=O)[O-])c1"
reported_measurement = 6.67


Request the reported LC retention time associated with N#Cc1c[nH]cc1-c1cccc2c1OC(F)(F)O2
5.51

Request the reported LC retention time associated with CC(C)C1CCC(Cc2ccc(Cl)cc2)C1(O)Cn1cncn1 (stereo not drawn)
6.21
